Reference source for all entries: patent US7378446B2

Please go through the items and note down their CC50.
measurement protocol: in vitro
Assay type: cell-based
cond: human; replicon cells, 3 days culture with compound, Cell Counting Kit 8, absorbance 450 nm; read-out: Cytotoxicity CC50

Query: In one line, give reported CC50 of the entry CC(C)CCOc1ccc(C[C@H](NC(=O)[C@@H](/C=C/CCCCCCC(=O)CCc2ccccc2)[C@@](O)(CC(=O)O)C(=O)O)C(=O)O)cc1 .
Reply: > 1 µM

Query: In one line, give reported CC50 of the entry CCCCCCCC(=O)CCCCCC/C=C/[C@H](C(=O)N[C@@H](Cc1ccc(Oc2cccc(F)c2)cc1)C(=O)O)[C@@](O)(CC(=O)O)C(=O)O .
Reply: > 1 µM

Query: In one line, give reported CC50 of the entry CCCCCCCC(=O)CCCCCC/C=C/[C@H](C(=O)N[C@@H](Cc1ccc(-c2ccc(Cl)cc2)cc1)C(=O)O)[C@@](O)(CC(=O)O)C(=O)O .
Reply: > 1 µM

###

measurement protocol: in vitro
Format: cell-based
cond: human; replicon cells, 3 days culture with compound, Cell Counting Kit 8, absorbance 450 nm; read-out: Cytotoxicity CC50
result type: CC50

Query: In one line, give reported CC50 of the entry CCCCCCCCCC(=O)CCCC/C=C/[C@H](C(=O)N[C@@H](Cc1ccc(-c2ccccc2)cc1)C(=O)O)[C@@](O)(CC(=O)O)C(=O)O [Compound 100] .
Reply: > 1000 nM

Query: In one line, give reported CC50 of the entry CC(C)CCOc1ccc(C[C@H](NC(=O)[C@@H](/C=C/CCCCCCC(=O)CCCCCCF)[C@@](O)(CC(=O)O)C(=O)O)C(=O)O)cc1 [Compound 98] .
Reply: > 1000 nM

Query: In one line, give reported CC50 of the entry CCCCCCCC(=O)CCCCCC/C=C/[C@H](C(=O)N[C@@H](Cc1ccc(-c2cccc(C(F)(F)F)c2)cc1)C(=O)O)[C@@](O)(CC(=O)O)C(=O)O [Compound 63] .
Reply: > 1000 nM

Query: In one line, give reported CC50 of the entry CCCC(=O)CCCCCC/C=C/[C@H](C(=O)N[C@@H](Cc1ccc(OCCC(C)C)cc1)C(=O)O)[C@@](O)(CC(=O)O)C(=O)O [Compound 46] .
Reply: > 5000 nM

Query: In one line, give reported CC50 of the entry CCCCCCCC(=O)CCCCCC/C=C/[C@H](C(=O)N[C@@H](Cc1ccc(N2CCOCC2)cc1)C(=O)O)[C@@](O)(CC(=O)O)C(=O)O [Compound 72] .
Reply: > 1000 nM

Query: In one line, give reported CC50 of the entry CCCCCCCC(=O)CCCCCC/C=C/[C@H](C(=O)N[C@@H](Cc1ccc(OCc2cccnc2)cc1)C(=O)O)[C@@](O)(CC(=O)O)C(=O)O [Compound 85] .
Reply: > 1000 nM
